Molecular target: EGFR (human)
Details: a431
readout_label: IC50 (µg/mL)

* CCOc1cc2ncc(C#N)c(Nc3ccc(Sc4nc(-c5ccccc5)cs4)c(C(F)(F)F)c3)c2cc1NC(=O)/C=C/CN(C)C | 0.3

a. CCOc1cc2ncc(C#N)c(Nc3ccc(Nc4nnc(C(F)(F)F)s4)c(Cl)c3)c2cc1[N+](=O)[O-]
b. CCOc1cc2ncc(C#N)c(Nc3ccc(Nc4nnc(C(F)(F)F)s4)c(Cl)c3)c2cc1NC(=O)/C=C/CN(C)C
Field: entry with larger IC50 (options a / b ). Refer to your chosen entry by its label in the reply.
a
(a: 1.79 µg/mL, b: 0.728 µg/mL)
